Values compiled from PubChem BioAssay.

# method.description: splicing luciferase reporter signal modulators, primary screen, spliceosome inhibition project, cell-based, HEK293, splice +/- reporter (AID 1101);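 further: HEK293 cells carrying a splicing-competent luciferase reporter gene; test concentration not given here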
# run.conditions: luminescence, 24 h, higher = more signal, called active from +8 up or from −8 down
reported.property: z-score

compound	reported.value
CC(C)=CCN(C(=O)C#Cc1ccccc1)[C@H](CO)c1ccccc1	7.56
C=CCC(OC(C)=O)[C@@H]1[C@@H](N(Cc2ccc(-c3cccc(C(F)(F)F)c3)o2)C(=O)Cc2ccc(F)cc2)c2cc(OCCCO)ccc2N1C(=O)c1ccc2ccccc2n1 (some centres undefined)	-0.362
COC(=O)C1=CC(CCCO)=CC(c2ccc(CN3CCCC3)cc2)N(Cc2sc3ccccc3c2Cl)C=C1C(=O)OC (centres undefined)	-0.855
O=C1N(CCS(=O)(=O)c2ccccc2)c2ccccc2[C@@H]2OC(c3ccc(OCCCO)cc3)=N[C@]12CCS(=O)(=O)c1ccccc1	-0.254

---

z-score for assorted molecules
# tested.on: NADPH oxidase 4 (Homo sapiens)
# method.description: NOX4-dependent H2O2 signal modulators, primary screen, NOX inhibitor project, cell-based, HEK293-NOX4, tetracycline-induced, Amplex Red fluorescence (AID 1160)
# run.conditions: 45 min, higher = more signal, called active from +8 up or from −8 down
reported.property: z-score

molecule	tested.on	reported.value
CN(C)CCCC[C@@H]1NC(=O)[C@H]2C[C@@H](C(=O)NCc3ccc(F)cc3)[C@@H](c3ccc(O)cc3)N2C1=O	NADPH oxidase 4 (Homo sapiens)	0.799
COCCCNC(=O)[C@@H]1c2ccccc2C(=O)N(Cc2cc(C(F)(F)F)cc(C(F)(F)F)c2)[C@H]1c1ccc(CO)cc1	NADPH oxidase 4 (Homo sapiens)	0.414
CCOC(=O)C[C@H]1[C@H](OC(=O)Cc2ccc3c(c2)OCO3)[C@@H](NC(=O)c2ccccc2)c2cc(OCCCO)ccc2N1C(=O)Cc1ccc(OC)cc1	NADPH oxidase 4 (Homo sapiens)	0.205
COCCOC(=O)N1C(=O)[C@@]2(c3cc(C#CCC(C(=O)OC)C(=O)OC)ccc31)[C@H](c1ccc(OCCO)cc1)N1[C@H](c3ccccc3)[C@H](c3ccccc3)OC(=O)[C@H]1[C@@H]2C(=O)N1CCCCCCC1	NADPH oxidase 4 (Homo sapiens)	0.397
Cc1ccccc1C(O)C1C=CC2C(=O)N(c3ccccc3)C(=O)C2N1Nc1ccccc1F (stereo unspecified)	NADPH oxidase 4 (Homo sapiens)	-5.43
CC(C)C[C@H]1NC(=O)[C@H](Cc2ccccc2)NC(=O)[C@@]23C(=O)N[C@@H](Cc4ccccc4)C2[C@H](C)[C@@]2(C)O[C@H]2C3/C=C/C/C=C\CNC1=O (stereo partly specified)	NADPH oxidase 4 (Homo sapiens)	0.819

---

# method.description: osmotic lysis modulators in infected erythrocytes, primary screen, PSAC antagonist project, cell-based, P. falciparum Indochina, OD700, 3 h (AID 1156)
# run.conditions: higher = more signal, called active from +8 up or from −8 down
reported.property: z-score

item.smiles	reported.value
COCCOC(=O)N1C(=O)[C@@]2(c3cc(C#CCCO)ccc31)[C@H](C(=O)N1CCN(c3ncccn3)CC1)[C@H]1C(=O)O[C@H](c3ccccc3)[C@H](c3ccccc3)N1[C@@H]2c1ccc(O)cc1	1.21
CCCC[C@@H](O)C1=C(COC)Cn2c(=O)n(-c3ccccc3)c(=O)n2[C@H]1CO	-0.304
COCCOC(=O)N1C(=O)[C@@]2(c3cc(C#CCCO)ccc31)[C@H](C(=O)N1CCc3cc(OC)c(OC)cc3C1)[C@H]1C(=O)O[C@H](c3ccccc3)[C@H](c3ccccc3)N1[C@@H]2c1ccccc1OCCO	1.6
